test: Inhibition of Plasmodium falciparum falcipain-2 after 12 hrs by fluorescence spectroscopy-based on-bead assay; set-up: concentration or dose not given beside the values; conditions: concentration not given here
Peptide text beside a SMILES is read from it.
Provide the recorded inhibition for the entries that follow.
One number for each entry, in %.

molecule="CC(=O)NC[C@H](NC(=O)/C=C/C(=O)NCC(=O)NCC(=O)N[C@@H](Cc1ccccc1)C(=O)O)C(=O)N[C@@H](Cc1ccccc1)C(=O)N[C@@H](CC(C)C)C(=O)N[C@H](C(N)=O)C(C)C (HELM PEPTIDE1{[O=C(/C=C/C(=O)[*:2])NCC(=O)NCC(=O)N[C@@H](Cc1ccccc1)C(=O)O].[O=C([C@H](CN[*:3])N[*:1])[*:2]].F.L.V.[am]}|PEPTIDE2{[ac]}$PEPTIDE1,PEPTIDE2,2:R3-1:R2$$$V2.0)" measure=inhibition result_units=% measured_number=59

Please state inhibition for every molecule in the list that follows.
1. CC(C)[C@H](NC(=O)[C@@H](NC(=O)[C@H](Cc1ccccc1)NC(=O)[C@H](CC(N)=O)NC(=O)/C=C/C(=O)N[C@@H](C)C(=O)NCC(=O)N[C@@H](Cc1ccccc1)C(=O)O)C(C)C)C(N)=O (HELM PEPTIDE1{[C[C@H](NC(=O)/C=C/C(=O)[*:2])C(=O)NCC(=O)N[C@@H](Cc1ccccc1)C(=O)O].N.F.V.V.[am]}$$$$V2.0)
2. CC(C)[C@H](NC(=O)[C@H](C)NC(=O)[C@@H](NC(=O)[C@H](C)NC(=O)/C=C/C(=O)NCC(=O)NCC(=O)N[C@@H](Cc1ccccc1)C(=O)O)C1CCCCC1)C(N)=O (HELM PEPTIDE1{[O=C(/C=C/C(=O)[*:2])NCC(=O)NCC(=O)N[C@@H](Cc1ccccc1)C(=O)O].A.[O=C([C@@H](N[*:1])C1CCCCC1)[*:2]].A.V.[am]}$$$$V2.0)

1. 54
2. 31
